Assay: human hepatoma cell viability loss – ATP luminescence, cytotoxicity control for P. falciparum antimalarial project, primary screen (AID 2303);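 further: 0% = DMSO wells and 100% = digitonin-killed cells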
Details: HepG2 viability, 24-48 h, at 10 µM, hits give high values
Please respond with reported inhibition for every item in the list.
Hi! Could you send only the number? It should be in %, unit omitted.

[in] So what does the record say about inhibition for O=C(Nc1cccc(CCNCc2ccccc2)c1)Nc1cccc2ccccc12 ?
[out] 13

[in] What does the data say about its inhibition? Entry: O=C(Cc1cccs1)NC(CCCN1CCC(Oc2cccc(Cl)c2)CC1)c1ccc(Cl)c(Cl)c1 (stereo not drawn)
[out] 39

[in] Quick one: inhibition of O=C(Cn1c(CCc2cccc(F)c2F)cc(=O)c2ccccc21)N(Cc1ccc(-c2ccc(C(F)(F)F)cc2)cc1)C1CCN(CCN2CCOCC2)CC1 ?
[out] 53

[in] # query: inhibition of entry FC(F)(F)c1ccc2nc(-c3ccc(-c4cccc(CN5CCN(c6ccncc6)CC5)c4)cc3)[nH]c2c1
[out] 82

[in] Which measured inhibition value corresponds to O=C(Nc1ccc(OC2CCN(Cc3ccsc3)C2)c(Cl)c1)c1ccc(F)cc1 (stereo not drawn) ?
[out] -3

[in] Any idea what its inhibition is? The compound is Cc1ccc(C(=O)Nc2ccc(Nc3ccnc4cc(-c5ccncc5)ccc34)cc2O)cc1
[out] 14

[in] // returns reported inhibition for input Cc1cccc2[nH]c(-c3cccc(-c4ccc(NC(=O)Nc5cccc(C#N)c5)cc4)c3)nc12
[out] 50

[in] For the compound shown here, O=c1cc(NC[C@@H]2CCC[C@@H]2NCc2ccc(Cl)c(Cl)c2)[nH]c2ccccc12 , give the reported inhibition.
[out] 9

[in] What does the record list as inhibition for O=[N+]([O-])c1ccc(NC(=NCCOc2ccccc2)Nc2ccccc2Br)c(O)c1 ?
[out] 6

[in] What value of inhibition has been recorded for this entry: CC(C)CCN=C(N)c1ccc(OCCCCCOc2ccc(C(N)=NCCC(C)C)cc2)cc1
[out] 5

[in] Suppose we examine the compound CCOC(=O)c1ccc(N(CCCN(CCCN(c2ccc(C(=O)OCC)cc2)S(=O)(=O)c2ccc(C)cc2)CCc2ccc(O)cc2)S(=O)(=O)c2ccc(C)cc2)cc1 ; what inhibition value has been reported?
[out] -11

[in] Consider the compound ON=C(c1nc2ccccc2[nH]1)c1nc2ccccc2[nH]1 and give its measured inhibition.
[out] 36

[in] Request the reported inhibition associated with COC(=O)Nc1nc2cc3c(cc2s1)OCCO3
[out] -12

====

What growth inhibition was measured for each of the following?
Experiment: antimalarial activity against Dd2 strain (AID 2302);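 further: 0% = DMSO untreated growth and 100% = chloroquine plus artemisinin killed control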
Settings: P. falciparum Dd2 in RBCs, LDH growth readout, 72 h; at 2 µM; hits give high values
Active and inactive are the calls of the source.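 The calls were made as follows: active = growth inhibition above 50% at the single 2 µM test dose, taken to imply half-maximal potency below 2 µM; inactive = the rest.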

[in] Recorded growth inhibition for CCC1(C)N=C(N)N=C(N)N1c1ccccc1 (centres undefined) , please?
[out] -2% (inactive)

[in] Which growth inhibition value is on record for Cc1ccccc1C1CCN(C2CCC(NC(=O)/C=C/c3cccc(Cl)c3)CC2)CC1 (centres undefined) ?
[out] 34% (inactive)

[in] # get_value(readout='growth inhibition', item= CC(C)(C)c1ccc(C(=O)NC2CCC(CCN3CCc4ccc(S(C)(=O)=O)cc4CC3)CC2)cc1C(F)(F)F (centres undefined) )
[out] 11% (inactive)

[in] Report growth inhibition for COc1cccc(CN(C(=O)Nc2ccccc2F)[C@H]2C[C@H]3C(=O)Nc4cc(F)ccc4C(=O)N3C2)c1 please.
[out] 75% (active)

[in] Reported growth inhibition for CCNc1cc(C(=O)N[C@@H](Cc2ccccc2)[C@H](O)CNCc2cc(OC)cc(OC)c2)cc(N2CCCC2=O)c1 : what is it?
[out] 75% (active)

[in] So what's the measured growth inhibition for this one? CNc1nc(Nc2ccccc2C)nc2ccccc12
[out] 81% (active)

[in] What value of measured growth inhibition is listed for C/C=C/COc1ccc2ccccc2c1CNCCCCCCCCNCc1c(OC/C=C/C)ccc2ccccc12 ?
[out] 86% (active)

[in] Any idea what growth inhibition was measured for O=C(NC1CC1)c1ccc(N2CCC(Cc3ccccc3)CC2)c([N+](=O)[O-])c1 ?
[out] 83% (active)

[in] Given the entry COc1ccc(-c2cnc3[nH]cc(-c4ccc(C(=O)O)c(C)c4)c3c2)cn1 , report its measured growth inhibition.
[out] 99% (active)

[in] GET /values?readout=growth inhibition&item= Cc1cc(C)c(C(=O)Nc2ccc3nc(C)cc(N)c3c2)c(C)c1
[out] 14% (inactive)

[in] Fill in: growth inhibition of CCCCCC(C)N=C(Nc1ccc(C#N)cc1O)Nc1ccccc1Br (centres undefined) is ___
[out] 95% (active)

[in] What measured growth inhibition goes with CCOc1ccc2c(NN=Cc3ccccc3F)cc(C)nc2c1 ?
[out] 77% (active)

[in] Given C=CCC1OC(=O)c2cc(OC)cc(OC)c21 (centres undefined) , state its recorded growth inhibition.
[out] 100% (active)

[in] Which growth inhibition reading was recorded for the compound N=C(N)c1ccc(C=CC(=O)NCC(O)CNC(=O)C=Cc2ccc(C(=N)N)cc2)cc1 (centres undefined) ?
[out] 80% (active)

[in] So what's the measured growth inhibition for this one? CCc1ccccc1N=C1c2c(cccc2[N+](=O)[O-])C(=O)C1C(C)=O (centres undefined)
[out] 96% (active)

[in] Any idea what its growth inhibition is? The compound is CCc1cc(CNC2CCN(CCc3c(F)cnc4ccc(OC)nc34)CC2)cc2c1OCCO2
[out] 94% (active)

[in] Requested field: growth inhibition. Item: c1ccc2[nH]c(-c3ccc(-c4ccc(CN5CCN(c6ccncc6)CC5)cc4)s3)nc2c1
[out] 100% (active)

[in] Form field: reported growth inhibition of Cc1ccc(Nc2ccnc3cc(-c4nccs4)ccc23)cc1C(O)c1ccccc1 (centres undefined)
[out] 83% (active)

[in] Query: growth inhibition; subject: CN(C)CCOc1cc(NC(=O)/C=C/c2cccc3ccccc23)ccc1I
[out] 7% (inactive)

[in] Field request: growth inhibition | item: COc1ccc(-c2ccc(NC(=O)c3ccc(Cl)cc3)cc2)cc1CN1CCNCC1
[out] 24% (inactive)

[in] Reported growth inhibition, compound Cn1nc(-c2cccc(CNCc3ccccc3)c2)c2cnc(NC3CCCC3)nc21 : ____
[out] 11% (inactive)

[in] Requested read-out: growth inhibition. Entry: Cc1cc2ncn(-c3ccnc(N4CCN(CCCN5CCCC5)CC4)n3)c2cc1C
[out] 49% (inactive)

[in] So what's the measured growth inhibition for this one? CCSc1ccc(C)cc1CON1C(N)=NC(N)=NC1(C)C
[out] 96% (active)

[in] I have this compound here, CCc1cc([C@H]2O[C@@H](n3cnc4c(NCC(c5ccccc5)c5ccccc5)nc(NCCNc5ccccn5)nc43)[C@H](O)[C@@H]2O)on1 , and I need its recorded growth inhibition.
[out] 32% (inactive)

[in] Form field: reported growth inhibition of COc1cccc(-c2cnc(-c3ccncc3)nc2C2CCN(Cc3ccc(NC(C)=O)cc3)CC2)c1
[out] -3% (inactive)

[in] I am curious: what growth inhibition value has been reported for CCc1ccccc1NC(=O)CN1CCN(c2ncnc3scc(-c4ccc(F)cc4)c23)CC1 ?
[out] 62% (active)

[in] # growth inhibition lookup, item CCNC(=O)NC1CCN(Cc2c(-c3cccs3)nc3ccccc3c2C(=O)N[C@@H](C)C2CCCCC2)CC1
[out] 96% (active)

[in] Tell me the measured growth inhibition of COc1ccc(-c2nc3nc4ccccc4cc3[nH]2)c(OCC(O)CNC(C)C)c1 (centres undefined) , please.
[out] 96% (active)

[in] Which growth inhibition value belongs to CS(=O)(=O)CCNCc1ccc(-c2cc3c(Nc4ccc(OCc5cccc(F)c5)c(Cl)c4)ncnc3s2)[nH]1 ?
[out] 95% (active)

[in] // growth inhibition lookup, key: CCc1c(C(=O)NC2CCC(N3CCC(c4ccccc4OC)CC3)CC2)[nH]c2ccc(OC)cc12 (centres undefined)
[out] 99% (active)

[in] Entry under review: CSc1nc2cc3c(cc2n1C(=O)c1ccc(C)cc1)OCCO3 . Reported growth inhibition?
[out] -1% (inactive)

[in] Given the compound Cc1nn(-c2ccccc2)nc1C(=O)N(Cc1ccc(-c2ccc(CNCCc3ccc(S(C)(=O)=O)cc3)cn2)cc1)C(C)CN(C)C (centres undefined) , what is its reported growth inhibition?
[out] 87% (active)

[in] I'd like to know its growth inhibition. The compound in question is CCCNCc1ccc(-c2ccc(CN(C(=O)c3nn(-c4ccccc4)nc3C)C3CCOCC3)cc2)nc1
[out] -6% (inactive)

[in] Suppose we examine the compound CCOc1c(CNCCCNc2cc(=O)c3ccccc3[nH]2)cc(I)cc1OC ; what growth inhibition value has been reported?
[out] 6% (inactive)

====

Assay: human hepatoma cell viability loss – ATP luminescence, cytotoxicity control for P. falciparum antimalarial project, primary screen (AID 2303);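 further: 0% = DMSO wells and 100% = digitonin-killed cells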
Details: HepG2 viability, 24-48 h, at 10 µM, hits give high values
parameter-measured: inhibition (%)
Unit % implied. Number only.

[in] If you can, please state the reported inhibition value of CC1(C)[C@H]2CC[C@@H](CNc3nc(NCCc4cnc[nH]4)nc(NCc4cc(F)ccc4F)n3)[C@@H]1C2 .
[out] 0

[in] # input molecule: Cc1c(CCNC(=O)CCCN2CC(C)CC(C)C2)c2ccccc2n1C (centres undefined) ; wanted: its inhibition
[out] 8

[in] Given the entry Cc1ncsc1CCN1C(=O)CC2(C1=O)C(=O)N(Cc1ccccc1)c1ccc(Cl)cc12 (centres undefined) , report its measured inhibition.
[out] 0

[in] Query (molecule): CCCNC(=O)c1cncc(-c2cccc(CNC3Cc4ccccc4C3)c2)c1 ; field requested: inhibition
[out] -2

[in] Tell me the measured inhibition of Cc1noc(-c2ccccc2)c1NC(=O)NC1CCN(CCCCCNC(=O)/C=C/c2ccc(Cl)c(Cl)c2)CC1 , please.
[out] -3

[in] Query (molecule): Clc1ccc(Cn2nc(Br)nc2Br)c(Cl)c1 ; field requested: inhibition
[out] 4

[in] // lookup inhibition for CN1CCN(c2ccnc3ccc(NC(=O)Nc4cccc5c(Br)cccc45)cc23)CC1
[out] 7

[in] // inhibition lookup, key: CCCc1cc(OC)c(C[C@H]2c3cc(O)c(Cl)cc3CCN2C)cc1OC
[out] -3

[in] Give the measured inhibition of O=C1C(C2CCC(c3ccc(Cl)cc3)CC2)=C2OCC3COC2(O3)c2ccccc21 (centres undefined) .
[out] 7

[in] Query: inhibition; subject: O=C(NC1CCCCC1)N(Cc1ccc(-c2ccc(CNC3CCCC3)cc2)cc1)C1CCN(Cc2ccccc2)CC1
[out] 31

[in] Entry O=C(CC1CCCC1)Nc1ccc2c(c1)CCC2 : reported inhibition = ?
[out] -1

[in] Request the reported inhibition associated with OC(CNc1ccnc(Nc2ccc(Cl)cc2)n1)c1cccc(C(F)(F)F)c1 (centres undefined)
[out] 9

[in] Please give the measured inhibition for this molecule: CC(=O)Nc1ccc(Nc2c3ccccc3nc3ccccc23)cc1
[out] 41

[in] Look up inhibition for this molecule: O=C(Nc1cccc(C(F)(F)F)c1)c1cccc2[nH]c(C(F)(F)F)nc12
[out] 81

Ref: PubChem BioAssay
